# System: NCI-H23 lung
# Assay Explanation: NCI-60 one-dose screen, 48 h
# Condition Info: 10 µM unless noted
Compounds without any hit were thinned out: in the full panel of roughly 83,000, 20% have a hit. Activity calls are given as the source filed them. How the source made its calls: active means growth percent below 10; inactive means the rest.
Valid outcomes are listed here; reply with one: active, inactive

Fill in: this test's call for "CN1CCN(Cc2ccc(NC(=O)c3cncc(C#Cc4c(N)ncc5c(F)cccc45)c3)cc2C(F)(F)F)CC1" is ___ active

For "COc1nc2ccccc2cc1/C=C1/C=C(c2ccccc2)NC1=O" , what call appears in the results of this test? inactive

What classification did CNC1=C([N+](=O)[O-])C(c2ccc(OC)cc2)C(C#N)=C(c2ccc[nH]2)O1 (centres undefined) end up with in this test? inactive

Returns: the outcome recorded for "CCCCCCC/C=N/NC(=O)c1ccc(-n2cc(-c3ccccc3)nn2)cc1" in this assay. inactive

Per the records of this test, what outcome belongs to C=CCOC(=O)C1=C(C)N(CC)C(=O)N(CC)C1c1c(Cl)n(C)c2ccccc12 (centres undefined) ? inactive

Lab log entry: "O=C(Nc1cccc2c1C(=O)c1cccc(NC(=O)c3ccc(C(=O)Nc4cccc5c4C(=O)c4cccc(NC(=O)c6ccccc6)c4C5=O)cc3)c1C2=O)c1ccccc1" — outcome as called in the assay? inactive

Hi, sorry to bother you, what did the test record for "N=C(N)c1ccc(-c2ccc(-c3ccccc3)s2)nc1" ? inactive

Which result was noted for this molecule in the test: "Cc1nc2ccccc2c(/C=C/c2ccc(Cl)cc2)c1C(=O)/C=C/c1ccccc1" inactive

For "Cc1ccc(S(=O)(=O)N(CCC(=O)O)c2ccccc2)cc1" , what call appears in the results of this test? inactive

====

# Tested on: MCF7 breast
# Assay Explanation: NCI-60 one-dose screen, 48 h (100 = growth as untreated, 0 = no growth, -100 = all killed)
# Condition Info: 10 µM unless noted
Compounds without any hit were thinned out: in the full panel of roughly 83,000, 20% have a hit.
Reported growth values follow for various compounds
Answer in %, number only, no unit symbol.

>>> endpoint_result("COc1nc2ccccc2cc1/C=C1/C=C(c2ccccc2)NC1=O")
24.2

For "COC(=O)c1cc(-c2cc(OC)c(OC)c(OC)c2)[nH]c1N/N=C/c1c(Cl)cccc1Cl" , write its growth. 7.14

Identify measured growth associated with "O=C(Nc1cccc2c1C(=O)c1cccc(NC(=O)c3ccc(C(=O)Nc4cccc5c4C(=O)c4cccc(NC(=O)c6ccccc6)c4C5=O)cc3)c1C2=O)c1ccccc1" 104

Provide one value: measured growth of "O=C1NCCS(=O)(=O)/C1=C\C=C\c1cccc(C(F)(F)F)c1" 18.2

Please look at this compound and report its growth: "CCCCC/C=C/CCC(=O)N[C@H]1[C@H](Oc2c3cc4cc2Oc2ccc(cc2Cl)[C@@H](O[C@@H]2O[C@H](CO)[C@@H](O)[C@H](O)[C@H]2NC(C)=O)[C@@H]2NC(=O)[C@H](NC(=O)[C@@H]4NC(=O)[C@H]4NC(=O)[C@@H](Cc5ccc(c(Cl)c5)O3)NC(=O)[C@@H](N)c3ccc(O)c(c3)Oc3cc(O)cc4c3)c3ccc(O)c(c3)-c3c(O[C@H]4O[C@H](CO)[C@@H](O)[C@H](O)[C@@H]4O)cc(O)cc3[C@H](C(=O)O)NC2=O)O[C@H](CO)[C@H](O)[C@@H]1O" 98.5

====

Consider the following compounds and their measured growth readings.
# System: OVCAR-8 ovarian
# Assay Explanation: NCI-60 one-dose screen, 48 h (100 = growth as untreated, 0 = no growth, -100 = all killed)
# Condition Info: 10 µM unless noted
Compounds without any hit were thinned out: in the full panel of roughly 83,000, 20% have a hit.
Number only, in %; omit the unit.

Solved cases (4 shown):
>>> endpoint_result("CCN1CCN(c2nc(NNC(=O)c3ccc(OC)cc3)nc(N3CCN(C(c4ccccc4)c4ccccc4)CC3)n2)CC1")
63.1
>>> endpoint_result("COc1ccc(C(=O)/C=C/c2ccc(C)cc2)cc1S(N)(=O)=O")
29.3
>>> endpoint_result("CC1(C)C2=C(C(=O)N1Cc1ccccc1)C(c1ccco1)N(C(=O)C1CCC1)CCN2 (stereo not given)")
115
>>> endpoint_result("N=C(N)c1ccc(-c2ccc(-c3ccc(Cl)cc3Cl)s2)nc1")
36.2

Retrieve growth on OVCAR-8 ovarian; query "COc1cc(C(=O)n2nc(NCCCc3ccccc3)c3cc(N)ccc32)cc(OC)c1OC" 82.8

====

# Test system: M14 melanoma
# Assay Explanation: NCI-60 one-dose screen, 48 h (100 = growth as untreated, 0 = no growth, -100 = all killed)
# Condition Info: 10 µM unless noted
The panel holds about 83,000 compounds, 20% with a hit somewhere; the sample as a whole holds those more often.
// class assignment uses growth with these ranges: band A: < 40%; band B: ≥ 40% and < 90%; band C: ≥ 90%

Reference set, count: 10
>>> assigned_category("CCCS(=O)(=O)Nc1cccc(Nc2ncnc3cc(NC(=O)CCl)ccc23)c1Cl")
"band A"
>>> assigned_category("CO[C@H]1/C=C/O[C@@]2(C)Oc3c(C)c(O)c4c(O)c(c5c(nc6cc(C)ccn65)c4c3C2=O)NC(=O)/C(C)=C\\C=C\\[C@H](C)[C@H](O)[C@@H](C)C(O)[C@@H](C)[C@H](OC(C)=O)[C@@H]1C (some centres undefined)")
"band C"
>>> assigned_category("Cn1ccnc1C(=O)/C=C/c1ccc(C(=O)Nc2ccccc2F)cc1")
"band A"
>>> assigned_category("C#CCOc1cc(/C=N/Nc2nc(-c3ccc(OC)cc3)cs2)ccc1O")
"band C"
>>> assigned_category("Cc1nc2ccccc2c(/C=C/c2ccc(Br)cc2)c1C(=O)/C=C/c1ccccc1")
"band A"
>>> assigned_category("Cc1cccc(C)c1NC(=O)Nc1ccccc1")
"band C"
>>> assigned_category("COC(=O)c1cc(-c2cc(OC)c(OC)c(OC)c2)[nH]c1N/N=C/c1c(Cl)cccc1Cl")
"band B"
>>> assigned_category("CN(C)c1ccc(Cc2cc(-c3ccccc3)nn(C/C(=N/O)c3ccccc3)c2=O)cc1")
"band B"
>>> assigned_category("Cn1cc(-c2csc(-c3cn(CCO)c4ccc(F)cc34)n2)c2cccnc21")
"band A"
>>> assigned_category("Cc1cc([N+](=O)[O-])ccc1NC(=O)c1ccc2c(c1)nc(-c1ccccc1)n2C1CCCCC1")
"band B"

Now turn to the next compound.
Which class does "CN(C)CCOc1nc2c3cc([N+](=O)[O-])ccc3nn2c2ccccc12" fall in? band B

====

# System: K-562 leukemia
# Assay Explanation: NCI-60 one-dose screen, 48 h (100 = growth as untreated, 0 = no growth, -100 = all killed)
# Condition Info: 10 µM unless noted
Compounds without any hit were thinned out: in the full panel of roughly 83,000, 20% have a hit.
Measured Property: growth (%)
Give the value, in units of %, as a plain number.

>>> endpoint_result("NC(=N\\N=C/c1ccc(Cl)cc1Cl)/C(N)=N\\N=C/c1ccc(Cl)cc1Cl")
80.6

Specify reported growth for the compound shown: COc1c(O[C@@H]2OC(CO)[C@H](O)[C@H](O)C2O)cc2oc3cc(O)c(CC=C(C)C)c(O)c3c(=O)c2c1CC=C(C)C (some centres undefined) 68.5

For the compound "O=c1c(/C=C/c2c(O)ccc3ccccc23)nnc2sc(-c3cccc([N+](=O)[O-])c3)nn12" , give its measured growth value. 50.9

Fill in reported growth for this entry: "COc1ccccc1NC(=O)n1c(=O)cc(C)c2ccc(O)cc21" 117

For the compound "CSc1nn2c(-c3cc4cc(Br)ccc4oc3=O)ccnc2c1C#N" , report growth. 104

# return recorded growth for entry CCOC(=O)C1=C(C)N(C)C(=O)N(C)C1c1ccccc1 (centres undefined) 82.2

Return reported growth. Input compound: Nc1ncnc2c1N=C(c1ccc([N+](=O)[O-])cc1)CC(c1ccc3c(c1)OCO3)N2 (centres undefined) 93.4

Dear colleague, please send me the reported growth for C#CC(F)(F)[C@]1(O)CCC2C3CCC4=CC(=O)CCC4=C3[C@@H](c3ccc(N(C)C)cc3)C[C@@]21C (some centres undefined) when you can. 85.9

Supply measured growth of "Cc1c2ccncc2c(C)c2c1c1ccccc1n2CCCCCC(=O)O" in your reply. 92.5

Name the recorded growth of the compound listed here: "O=[N+]([O-])c1ccc(N/N=C\c2cc(Cl)ccc2O)nc1" 17.8

Give growth for the following compound: Nc1nc(N)c2c(n1)NC(c1ccc3c(c1)OCO3)CC(c1cccc(Nc3ccncc3)c1)=N2 (centres undefined) 44.3

Specify reported growth for the compound shown: Cc1ccc2c(c1)CC(O)CC1C(=O)N(CCO)CC(=O)N21 (centres undefined) 101

Identify growth associated with the compound "CCOc1ccc(N2C(=O)CCSC2=S)cc1" 111

In one line, give reported growth of the entry "Cc1ccc(Nc2oc(-c3ccccc3)nc2[P+](c2ccccc2)(c2ccccc2)c2ccccc2)cc1" . 0.645

Give the reported value of growth for this record: CO[C@H]1/C=C/O[C@@]2(C)Oc3c(C)c(O)c4c(O)c(c5c(nc6cc(C)ccn65)c4c3C2=O)NC(=O)/C(C)=C\C=C\[C@H](C)[C@H](O)[C@@H](C)C(O)[C@@H](C)[C@H](OC(C)=O)[C@@H]1C (some centres undefined) 95.3

Identify the reported growth for the following entry. "Nc1ncc(-c2ccc3ncnc(N4CCc5cc(F)c(Cl)cc54)c3c2)cc1C(F)(F)F" 15
